Ref: patent US20170008955A1

Measured koff by item
# tested_on: T1, cSNK:BSA conjugate (bovine, head-to-tail cyclized; conjugated to BSA carrier)
# T1 construct: also called BSA-cSNK
# run_description: BLI 2:1 fit, site 1; 3.13 nM row
Only the number, expressed in s⁻¹, is required.

hu5E3-IgG4 (antibody, V domains shown, human IgG4/kappa; also called humanized 5E3 IgG4) VH: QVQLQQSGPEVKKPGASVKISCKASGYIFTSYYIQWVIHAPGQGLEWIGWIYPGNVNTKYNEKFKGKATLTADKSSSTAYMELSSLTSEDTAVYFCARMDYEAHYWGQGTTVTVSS VL: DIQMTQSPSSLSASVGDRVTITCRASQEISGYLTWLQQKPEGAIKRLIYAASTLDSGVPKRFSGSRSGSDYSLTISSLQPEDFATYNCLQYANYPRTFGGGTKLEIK :: 0.00055
rehu5E3-IgG4 (antibody, V domains shown, human IgG4/kappa; also called IgG4 rehu version) VH: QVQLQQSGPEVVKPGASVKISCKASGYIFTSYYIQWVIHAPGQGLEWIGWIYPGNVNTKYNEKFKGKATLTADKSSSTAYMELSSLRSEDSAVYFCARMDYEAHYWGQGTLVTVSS VL: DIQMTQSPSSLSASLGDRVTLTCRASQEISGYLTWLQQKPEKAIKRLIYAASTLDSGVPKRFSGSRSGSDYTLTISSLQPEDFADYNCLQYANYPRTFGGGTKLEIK :: 0.000386
hu5E3-IgG1 (antibody, V domains shown, human IgG1/kappa; also called humanized 5E3 IgG1; IHA variant) VH: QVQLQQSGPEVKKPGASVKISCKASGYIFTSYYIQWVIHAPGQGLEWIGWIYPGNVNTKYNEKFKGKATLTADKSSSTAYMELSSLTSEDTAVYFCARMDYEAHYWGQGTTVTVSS VL: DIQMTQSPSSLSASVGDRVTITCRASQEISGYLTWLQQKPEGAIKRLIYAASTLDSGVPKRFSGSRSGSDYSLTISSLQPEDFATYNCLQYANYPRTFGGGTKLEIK :: 0.000825

Could you now look at the following binder, please?
Query: // koff lookup, key: murine monoclonal antibody 5E3 (antibody, V domains shown, mouse antibody of the 5E3 hybridoma; also called murine 5E3; m5E3) VH: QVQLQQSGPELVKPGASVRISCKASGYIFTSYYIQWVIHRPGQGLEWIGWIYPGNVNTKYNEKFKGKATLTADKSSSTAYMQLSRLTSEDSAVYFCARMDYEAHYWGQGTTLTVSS VL: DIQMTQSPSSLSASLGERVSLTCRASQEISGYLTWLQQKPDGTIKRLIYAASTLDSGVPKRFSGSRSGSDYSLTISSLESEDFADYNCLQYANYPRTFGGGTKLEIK
Response: 0.000428
